Hey, just so you know, these numbers are from the RepoRT retention time repository (doi:10.1016/j.jhazmat.2019.121712).

Would you mind telling me the reported LC retention time of each entry?
Assay Remarks: Thermo Scientific Acclaim RSLC 120 C18, 100 × 2.1 mm, 2.2 µm, 30 °C; A: 90% water + 10% methanol + 0.01% formic acid + 5 mM ammonium formate; B: methanol + 0.01% formic acid + 5 mM ammonium formate; gradient (min/%B) 0.1/1 3/39 14/99.9 16/99.9
Details: stereoisomer not certain

Please review the entries below; each comes with its answer.
Suppose we examine the molecule CCCc1nn(C)c2c(=O)[nH]c(-c3cc(S(=O)(=O)N4CCN(CC)CC4)ccc3OCC)nc12 ; what LC retention time value has been reported?
7.84 min

Same question for CCC(C)c1ccccc1OC(=O)NC (stereo not given) please.
9.05 min

Could you report LC retention time for every entry in the following list?
1. CCNC(C)Cc1ccc2c(c1)OCO2 (stereo not given)
2. COc1cc(OC)nc(NC(=O)NS(=O)(=O)c2cc(NC=O)ccc2C(=O)N(C)C)n1
3. CNC(=O)Oc1cccc(C)c1
4. CCN(CC)C(=O)NC1C=C2c3cccc4[nH]cc(c34)CC2N(C)C1 (stereo not given)
5. CCCCn1cc(C(=O)c2cccc3ccccc23)c2ccc(O)cc21

["4.39 min", "7.54 min", "6.59 min", "5.92 min", "10.6 min"]

Could you report LC retention time for every entry in the following list?
1. CCCCCn1nc(C(=O)NC(C)(C)c2ccccc2)c2ccccc21
2. NCC1CCC(C(=O)O)CC1 (stereo not given)
3. CC(CCc1ccc(O)cc1)NCC(O)c1ccc(O)cc1 (stereo not given)
4. COc1ccc(C2Sc3ccccc3N(CCN(C)C)C(=O)C2O)cc1 (stereo not given)
5. CCNCC(O)c1cccc(O)c1 (stereo not given)
6. CCNc1nc(NCC)[nH]c(=O)n1
7. CNCC12CCC(c3ccccc31)c1ccccc12

12.5 min
1.79 min
4.39 min
6.41 min
2.66 min
4.21 min
6.52 min

###

Assay Remarks: Thermo Scientific Acclaim RSLC 120 C18, 100 × 2.1 mm, 2.2 µm, 30 °C; A: 90% water + 10% methanol + 0.01% formic acid + 5 mM ammonium formate; B: methanol + 0.01% formic acid + 5 mM ammonium formate; gradient (min/%B) 0.1/1 3/39 14/99.9 16/99.9
Details: stereoisomer not certain
Readout Label: LC retention time (min)
One number for each entry, in min.

Please review the entries below; each comes with its answer.
Suppose we examine the molecule CCCCCCCCCCCCOCCOCCOCCOCCO ; what LC retention time value has been reported?
13.5

Same question for CC(=O)Oc1cc(C(C)C)c(OCCN(C)C)cc1C please.
6.21

Same question for COC(=O)c1sccc1S(=O)(=O)NC(=O)Nc1nc(C)nc(OC)n1 please.
6.24

Same question for CCC(CC)Nc1c([N+](=O)[O-])cc(C)c(C)c1[N+](=O)[O-] please.
12.8

Same question for Cn1c([N+](=O)[O-])cnc1COC(N)=O please.
3.55

Same question for COc1ccc2c(c1)N(CC(C)CN(C)C)c1ccccc1S2=O (stereo not given) please.
5.98

Same question for CCCC(C)(COC(N)=O)COC(=O)NC(C)C (stereo not given) please.
7.99

Same question for COc1cc(CCN)c(OC)cc1C please.
5.34

Could you report LC retention time for every entry in the following list?
1. CCN(CC)C(=O)C(C#N)=Cc1cc(O)c(O)c([N+](=O)[O-])c1
2. NC(=O)C(CCN1CCCCC1)(c1ccccc1)c1ccccc1
3. COc1ccc2[nH]cc(CCN(C)C)c2c1
4. CCC1(c2cccc(O)c2)CCCCN(C)C1 (stereo not given)
5. CN(C)CCc1ccc(O)cc1
6. Cc1ccc(N)c(C)c1
7. CN(C)P(=O)(OP(=O)(N(C)C)N(C)C)N(C)C

1. 6.89
2. 5.19
3. 3.98
4. 4.74
5. 2.28
6. 5.04
7. 5.36

###

Assay Remarks: Thermo Scientific Acclaim RSLC 120 C18, 100 × 2.1 mm, 2.2 µm, 30 °C; A: 90% water + 10% methanol + 0.01% formic acid + 5 mM ammonium formate; B: methanol + 0.01% formic acid + 5 mM ammonium formate; gradient (min/%B) 0.1/1 3/39 14/99.9 16/99.9
Details: stereoisomer not certain
Readout Label: LC retention time (min)
Numbers only, in min.

Suppose we examine the compound C=CCc1ccccc1OCC(O)CNC(C)C (stereo unspecified) ; what LC retention time value has been reported?
6.71

Same question for NNCCc1ccccc1 please.
3.71

Same question for CCCCN(CCCC)SN(C)C(=O)Oc1cccc2c1OC(C)(C)C2 please.
13.8

Same question for COC(=O)Nc1nc2ccc(Sc3ccccc3)cc2[nH]1 please.
10.3

Same question for CC(CCN1CCOCC1)OC(=O)C1(c2ccccc2)CCOCC1 (stereo unspecified) please.
6.12

Same question for COC(=O)C1C2CC3c4[nH]c5cc(OC)ccc5c4CCN3CC2CC(OC(=O)c2cc(OC)c(OC)c(OC)c2)C1OC (stereo unspecified) please.
8.47

Could you report LC retention time for every entry in the following list?
1. c1ccc2scnc2c1
2. CN=CNc1ccc(C)cc1C
3. COC(=O)NC(C(=O)NC(Cc1ccccc1)C(O)CN(Cc1ccc(-c2ccccn2)cc1)NC(=O)C(NC(=O)OC)C(C)(C)C)C(C)(C)C (stereo unspecified)
4. COc1cc(CCN)cc(OC)c1OC

6.88
4.44
10.9
3.88

Suppose we examine the compound CC1=C(C(=O)O)N2C(=O)C(NC(=O)C(N)c3ccc(O)cc3)C2SC1 (stereo unspecified) ; what LC retention time value has been reported?
2.84

###

Would you mind telling me the reported LC retention time of each entry?
Assay Remarks: Thermo Scientific Acclaim RSLC 120 C18, 100 × 2.1 mm, 2.2 µm, 30 °C; A: 90% water + 10% methanol + 0.01% formic acid + 5 mM ammonium formate; B: methanol + 0.01% formic acid + 5 mM ammonium formate; gradient (min/%B) 0.1/1 3/39 14/99.9 16/99.9
Details: stereoisomer not certain
Numbers only, in min.

Please review the entries below; each comes with its answer.
Suppose we examine the molecule CCOC(=O)C1(c2ccccc2)CCC=CC1NC (stereo not drawn) ; what LC retention time value has been reported?
5.28

Same question for CC1(C)OCC2OC3(C(=O)O)OC(C)(C)OC3C2O1 (stereo not drawn) please.
4.76

Same question for Cc1ccccc1C(=O)Nc1cccc(OC(C)C)c1 please.
9.62

Same question for NC1Cc2cc3c(cc2C1)OCO3 please.
3.81

Same question for CCCc1nn(C)c2c(=O)[nH]c(-c3cc(C(=O)CN4CCN(CC)C(=O)C4)ccc3OCC)nc12 please.
9.09

Could you report LC retention time for every entry in the following list?
1. COC(=O)C1=C(C)NC(C)=C(C(=O)OC)C1c1ccccc1[N+](=O)[O-]
2. COc1ccc2[nH]cc(CC(C)N)c2c1 (stereo not drawn)
3. COc1ccc(Cc2cnc(N)nc2N)cc1OC
4. CN1CCC23c4c5ccc(O)c4OC2C(=O)CCC3(O)C1C5 (stereo not drawn)

[8.31, 4.36, 3.88, 2.75]

Could you report LC retention time for every entry in the following list?
1. COCCc1ccc(OCC(O)CNC(C)C)cc1 (stereo not drawn)
2. O=C(c1cccc2ccccc12)c1cn(CCCCCO)c2ccccc12
3. CN(C)c1ccc(N=Nc2ccccc2)cc1
4. COc1ccc(C(=O)c2c(C)n(CCN3CCOCC3)c3ccccc23)cc1
5. CC=C(C)C(=O)OC1CC(OC(C)=O)C2(C(=O)OC)COC3C2C12COC(O)(C(=O)OC)C2C(C)(C12OC1(C)C1CC2OC2OC=CC21O)C3O (stereo not drawn)
6. CCCCCn1nc(C(=O)NC(C(N)=O)C(C)(C)C)c2ccccc21 (stereo not drawn)

[4.93, 10, 12.4, 9.55, 7.56, 11.2]

Could you report LC retention time for every entry in the following list?
1. COP(=O)(OC)OC(C)=CC(=O)N(C)C
2. CC12C=CC3=C4CCC(=O)C=C4CCC3C1CCC2O (stereo not drawn)
3. CC(Cc1ccc(O)cc1)NCC(O)c1cc(O)cc(O)c1 (stereo not drawn)
4. CC(C(=O)c1ccc2c(c1)OCO2)N(C)C (stereo not drawn)
5. CC(=O)c1cc2cccc(OCC(O)CNC(C)C)c2o1 (stereo not drawn)
6. CCN(C)C(=O)Oc1cccc(C(C)N(C)C)c1 (stereo not drawn)
7. CCN1CC(CCN2CCOCC2)C(c2ccccc2)(c2ccccc2)C1=O (stereo not drawn)
8. CC[N+]1(C)C2CC(OC(=O)C(CO)c3ccccc3)CC1C1OC12 (stereo not drawn)

4.5
8.89
3.61
3.78
4.93
4.74
6.23
3.87

###

Assay Remarks: Thermo Scientific Acclaim RSLC 120 C18, 100 × 2.1 mm, 2.2 µm, 30 °C; A: 90% water + 10% methanol + 0.01% formic acid + 5 mM ammonium formate; B: methanol + 0.01% formic acid + 5 mM ammonium formate; gradient (min/%B) 0.1/1 3/39 14/99.9 16/99.9
Details: stereoisomer not certain
Readout Label: LC retention time (min)
Answers are plain numbers, in min.

Suppose we examine the molecule O=C(Nc1ccc(C(=O)O)c(O)c1)c1ccccc1 ; what LC retention time value has been reported?
5.47

Could you report LC retention time for every entry in the following list?
1. CSc1nc(NC2CC2)nc(NC(C)(C)C)n1
2. CCC1OC(=O)C(C)C(=O)C(C)C(OC2OC(C)CC(N(C)C)C2O)C(C)(OC)CC(C)C(=O)C(C)C2N(CCCCn3cnc(-c4cccnc4)c3)C(=O)OC12C (stereo unspecified)
3. CCN(CC)CC(C)(C)COC(=O)c1ccc(N)cc1

10.5
7.25
4.24

Could you report LC retention time for every entry in the following list?
1. CC(=O)OCC(=O)C12N=C(C)OC1CC1C3CCC4=CC(=O)C=CC4(C)C3C(O)CC12C (stereo unspecified)
2. Nc1ccc(S(=O)(=O)Nc2ncccn2)cc1

1: 9.35; 2: 3.48
